B1: MATN2 (parent)
chain: FIVDILQFLDIGPDVTRVGLLQYG

Variants of: B1
TEST NAME: protein stability index of a GFP-peptide fusion (GPS, HEK-293T) (PSI 1-6); higher = more stable;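 further: lentivirally expressed fusions sorted by FACS into six bins by GFP to DsRed ratio, PSI derived from sequencing read proportions per bin multiplied by bin number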
MEASUREMENT PARAMETERS: c terminus: a fixed tail appended
# protein stability index annotations
READOUT KIND: protein stability index

variant_string=G19T readout_kind="protein stability index" numeric_readout=3.15
variant_string=G12Q readout_kind="protein stability index" numeric_readout=2
variant_string=I11N readout_kind="protein stability index" numeric_readout=2.49
variant_string=L6P readout_kind="protein stability index" numeric_readout=1.3
variant_string=D4A readout_kind="protein stability index" numeric_readout=2.58
variant_string=L20Y readout_kind="protein stability index" numeric_readout=3.45
variant_string=Q22M readout_kind="protein stability index" numeric_readout=2.53
variant_string=P13S readout_kind="protein stability index" numeric_readout=2.69
variant_string=L9F readout_kind="protein stability index" numeric_readout=3.76
variant_string=I11Y readout_kind="protein stability index" numeric_readout=3.28
